- target_of_assay: T1, canine OX40L, full length membrane form, expressed on HEK293 cells (canine)
- T1 chain: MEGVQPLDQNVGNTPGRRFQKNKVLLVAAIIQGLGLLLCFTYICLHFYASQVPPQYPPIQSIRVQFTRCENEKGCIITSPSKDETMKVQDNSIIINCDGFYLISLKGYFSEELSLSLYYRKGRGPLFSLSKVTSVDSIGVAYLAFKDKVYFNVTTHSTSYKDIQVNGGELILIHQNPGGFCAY
- run_description: cell-based or functional assay
metric: % Signal Inhibition Rep1 (%)

>>> measurement("PMX093 (antibody, V domains shown) VH: EVQLVESGGDLVKPGGSLRLSCVASGFTFSSYHMSWVRQAPGKGLQWVAFINSGGGGTNYADAVKGRFTISRDYAKNTLYLQMNSLRAEDTAVYYCVGGSIWTHFDYWGQGTLVTVSS VL: SYVLTQLPSMSVTLRQTARITCEGDIIASKRVYWYQQKLGQVPVLLIYGDSSRPSGIPERFSGANSGNTATLTISGALAEDEADYYCQVWDSGTNSVFGGGTHLTVL")
0
>>> measurement("PMX047 (antibody, V domains shown, also called PMX47) VH: EVQLVESGGDLVKPGGSLRLSCVASGFIFSSYSMSWVRQAPEKGLQLVAGINSAGSSTYYTDAVKGRFTISRDNAKNTVYLQMNSLRAEDTAIYYCAKRWVFDFWGQGTLVTVSS VL: HIVMTQTPLSLSVSPGEPASISCKASQSLLLSYGNTYLYWFRQKPGQSPQRLIYKVSNRDPGVPDRFSGSGSGTDFTLRISRVEADDAGVYYCGQGIQDPFTFGQGTKLEIK")
49.3
>>> measurement("PMX064 (antibody, V domains shown, also called PMX64) VH: EVQLVESGGDLVKPGGSLRLSCVASGFTFSSYHMSWVRQAPGKGLQWVAYITSGGITTSYADAVKGRFTISRDNAKNTLYLQMNSLRAEDTAVYYCASDLVLILGGADYWGQGTLVTVSS VL: SYELTQPPSVNVTLSETAHITCGGDSIGRKYVQWIQQNPGQAPVVIIYKDSNRPTGIPERFSGANSGNTATLTISGALAEDEADYYCQVGDSGTKAVFGGGTHLTVL")
88.9
